- assay.system: UniProtKB P18089
- Sequence (P18089 whole entry): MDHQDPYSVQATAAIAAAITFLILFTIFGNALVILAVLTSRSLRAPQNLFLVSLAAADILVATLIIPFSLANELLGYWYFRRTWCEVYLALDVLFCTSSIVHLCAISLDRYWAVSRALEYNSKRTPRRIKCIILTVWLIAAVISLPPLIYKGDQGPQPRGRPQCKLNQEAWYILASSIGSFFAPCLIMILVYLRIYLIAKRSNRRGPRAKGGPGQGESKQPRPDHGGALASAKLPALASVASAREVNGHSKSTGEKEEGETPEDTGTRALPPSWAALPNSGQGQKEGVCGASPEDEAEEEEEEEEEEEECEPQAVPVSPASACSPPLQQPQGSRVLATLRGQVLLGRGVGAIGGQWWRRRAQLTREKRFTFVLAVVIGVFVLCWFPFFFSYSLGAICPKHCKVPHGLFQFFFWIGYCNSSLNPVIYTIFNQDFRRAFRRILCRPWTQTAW
- assay.notes: Receptor Selection and Amplification Technology (RSAT) assay, alpha2B
- settings: RSAT, transfected NIH-3T3 cells with Gq/i5; not active = not active at concentrations less than 10 micromolar; read-out: Alpha 2B EC50
- Description: The RSAT assay measures a receptor-mediated loss of contact inhibition that results in selective proliferation of receptor-containing cells in a mixed population of confluent cells. The increase in cell number is assessed with an appropriate transfected marker gene such as […]-galactosidase, the activity of which can be easily measured in a 96-well format. Receptors that activate the G protein, Gq, elicit this response. […]
Entries and their EC50 values follow.

Here is how some molecules turned out for EC50.
[[record]]
molecule = "N#C/N=C(\\NCCF)NC1CCc2ccc(Cl)cc21 (stereo not drawn)"
val = "232 nM"

[[record]]
molecule = "Cc1ccc2c(c1)C(N/C(=N\\C#N)NCCF)CC2 (stereo not drawn)"
val = "518 nM"


Short answer for N#C/N=C(/NCCF)NC1CCCc2c(Cl)cccc21 (stereo not drawn) : EC50 was 296 nM

Lab book: EC50 of N#C/N=C(/NCCF)NC1CCc2c(Br)cccc21 (stereo not drawn) noted as 2570 nM

Notebook: N#C/N=C(\NCCF)NC1CCc2cccc(Cl)c21 (stereo not drawn) , EC50 read as 642 nM
